# credit: patent US6653478B2

- target: human V1a receptor (Homo sapiens, UniProt P37288)
- Sequence (P37288 whole entry): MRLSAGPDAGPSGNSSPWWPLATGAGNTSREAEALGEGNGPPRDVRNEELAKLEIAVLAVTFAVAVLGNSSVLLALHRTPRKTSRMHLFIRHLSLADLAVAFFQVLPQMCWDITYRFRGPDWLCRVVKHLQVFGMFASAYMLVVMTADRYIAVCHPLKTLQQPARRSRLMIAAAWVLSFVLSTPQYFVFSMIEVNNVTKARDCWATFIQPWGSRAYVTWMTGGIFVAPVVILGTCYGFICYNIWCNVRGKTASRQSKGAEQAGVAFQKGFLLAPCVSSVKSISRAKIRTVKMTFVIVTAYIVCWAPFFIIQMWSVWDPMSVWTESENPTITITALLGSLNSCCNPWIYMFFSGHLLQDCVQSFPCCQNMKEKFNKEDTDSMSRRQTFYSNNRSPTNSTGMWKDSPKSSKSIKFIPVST
- procedure text: V1a functional assay, intracellular calcium mobilization in transfected HEK-293 cells (FLIPR)
- Design: expressed in transfected cells; host or cells: HEK-293
- condition set: challenge 1 nM AVP; read-out: Cell-Based Functional activity V1a IC50
- Experimental: V1a, V1b or V2 Functional Assay HEK-293 cells were grown in DMEM media supplemented with 10% FBS and glutamine (Gibco BRL, Grand Island, N.Y.). […] Intracellular calcium mobilization was measured in HEK-293 cells transfected to express either human V1a, oxytocin or V1b receptors. […] Intracellular fluorescence was measured using FLIPR (fluorometric imaging plate reader; Molecular Devices, Inc., Sunnyvale, Calif.). […]
Structures can show the parent of a compound that is named as a salt.
measured property: IC50

- compound: "CCN(CC)CCn1c(=O)n(C2CCN(C(=S)NC(Cc3ccccc3)C(=O)OC)CC2)c2ccccc21 (stereo not shown)"
  observed: "810 nM"
- compound: "CCN(CC)CCn1c(=O)n(C2CCN(C(=S)NC(c3ccccc3)c3ccccc3)CC2)c2ccccc21"
  observed: "458 nM"
- compound: "NCCCCn1c(=O)n(C2CCN(C(=S)NC(c3ccccc3)c3ccc(Cl)cc3)CC2)c2ccccc21 (stereo not shown)"
  observed: "460 nM"
- compound: "NCCCn1c(=O)n(C2CCN(C(=S)NC(c3ccccc3)c3ccccc3)CC2)c2ccccc21 [Compound 55, Monohydrochloride]"
  observed: "139 nM"

---

- target: human V2 receptor (Homo sapiens, UniProt P30518)
- Sequence (P30518 whole entry): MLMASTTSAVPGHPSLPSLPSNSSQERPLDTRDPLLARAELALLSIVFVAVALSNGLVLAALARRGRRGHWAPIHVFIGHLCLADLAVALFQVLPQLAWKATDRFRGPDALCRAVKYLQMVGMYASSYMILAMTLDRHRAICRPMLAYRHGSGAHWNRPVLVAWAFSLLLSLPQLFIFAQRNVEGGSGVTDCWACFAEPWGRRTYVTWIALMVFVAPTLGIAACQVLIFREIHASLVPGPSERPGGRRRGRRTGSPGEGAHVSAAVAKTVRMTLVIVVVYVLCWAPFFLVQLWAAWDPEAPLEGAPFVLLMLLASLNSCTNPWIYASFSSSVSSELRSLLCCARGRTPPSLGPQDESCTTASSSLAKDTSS
- procedure text: V2 binding assay (3H-AVP displacement, HEK-293 membranes)
- Parameters: expressed in transfected cells; host or cells: HEK-293 (membranes)
Counter-ions that a name gives are not always drawn.

- compound: "NCCCn1c(=O)n(C2CCN(C(=S)NC(c3ccccc3)c3ccccc3)CC2)c2ccccc21 [Compound 55, Monohydrochloride]"
  unit string: "nM"
  IC50: 1250
- compound: "NCCCCn1c(=O)n(C2CCN(C(=S)NC(c3ccccc3)c3ccccc3)CC2)c2ccccc21 [Compound 64]"
  unit string: "nM"
  IC50: 560
- compound: "NCCCCn1c(=O)n(C2CCN(C(=S)NC(c3ccccc3)c3ccc(Cl)cc3)CC2)c2ccccc21 (stereo not drawn) [Compound 65]"
  unit string: "nM"
  IC50: 500

---

- target: human V1b receptor (Homo sapiens, UniProt P47901)
- Sequence (P47901 1-424): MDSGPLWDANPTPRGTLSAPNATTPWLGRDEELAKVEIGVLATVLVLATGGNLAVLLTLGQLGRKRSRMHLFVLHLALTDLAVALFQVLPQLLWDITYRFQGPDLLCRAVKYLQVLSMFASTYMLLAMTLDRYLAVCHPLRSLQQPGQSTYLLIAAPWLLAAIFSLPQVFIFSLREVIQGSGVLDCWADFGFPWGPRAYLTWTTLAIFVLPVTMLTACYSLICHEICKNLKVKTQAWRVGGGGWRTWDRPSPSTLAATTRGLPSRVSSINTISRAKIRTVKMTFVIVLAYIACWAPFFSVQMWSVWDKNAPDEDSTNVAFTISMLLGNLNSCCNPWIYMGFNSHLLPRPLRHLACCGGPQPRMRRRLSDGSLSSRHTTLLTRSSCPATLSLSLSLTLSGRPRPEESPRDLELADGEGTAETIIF
- procedure text: V1b binding assay (3H-AVP displacement, HEK-293 membranes)
- Parameters: expressed in transfected cells; host or cells: HEK-293 (membranes)
- Description: V1a, V1b or V2 Binding Assay Receptor binding studies were performed using recombinant human V1a, V1b or V2 receptors. Cellular membranes were harvested from HEK-293 cells transfected to express either the V1a, V1b or V2 receptors. Compounds were evaluated for their ability to displace ^3H-arginine vasopressin (^3H-AVP; specific activity 40-87 Ci/mmol; NEN Life Sciences, Boston, Mass.). […] Non-specific binding was determined using 1.25 μM arginine vasopressin (AVP; Peninsula Labs, Belmont, Calif.). […]
Where a name gives a salt, the structure may show the parent alone.
Reported IC50 is given for each of the following molecules.
measured property: IC50 (nM)

- molecule: "O=c1n(CCCN2CCCCC2)c2ccccc2n1C1CCN(C(=S)NCc2ccccc2-c2ccccc2)CC1 [Compound 169]"
  measured property: "IC50"
  unit string: "nM"
  observed: 1720
- molecule: "CC1CC(C)CN(CCCn2c(=O)n(C3CCN(C(=S)NC(c4ccccc4)c4ccccc4)CC3)c3ccccc32)C1 (stereo not shown) [Compound 82]"
  measured property: "IC50"
  unit string: "nM"
  observed: 140
- molecule: "Cc1ccc2c(c1)n(CCCN1CCCCC1)c(=O)n2C1CCN(C(=S)NC(c2ccccc2)c2ccccc2)CC1 [Compound 172]"
  measured property: "IC50"
  unit string: "nM"
  observed: 700
- molecule: "CN(C)CCCn1c(=O)n(C2CCN(C(=S)NC(c3ccccc3)c3ccccc3)CC2)c2ccccc21 [Compound 71]"
  measured property: "IC50"
  unit string: "nM"
  observed: 870
- molecule: "NCCCn1c(=O)n(C2CCN(C(=S)NC(c3ccccc3)c3ccccc3)CC2)c2ccccc21 [Compound 55, Monohydrochloride]"
  measured property: "IC50"
  unit string: "nM"
  observed: 5100
- molecule: "COc1ccc(C(NC(=S)N2CCC(n3c(=O)n(CCCN)c4ccccc43)CC2)c2ccc(OC)cc2)cc1 [Compound 68, Hydrochloride]"
  measured property: "IC50"
  unit string: "nM"
  observed: 4600
- molecule: "O=c1n(CCCN2CCCCC2)c2ccccc2n1C1CCN(C(=S)NC(c2ccccc2)c2ccccc2)CC1 [Compound 81]"
  measured property: "IC50"
  unit string: "nM"
  observed: 76
